- test.name: qHTS of pediatric cancer cell lines to identify multiple opportunities for drug repurposing: Primary screen for Saos-2 cells (AID 1347097); also: nearly all actives have a fitted effect of over 40% in size
- study.conditions: Saos-2 viability, CellTiter-Glo ATP luminescence, 48 h; series mostly up to 46 µM
Results filed as inconclusive are left out. Active and inactive are the calls of the source. Calls follow the shape of the dose curve; as a rule, active = well fitted cell-killing curve with a large enough effect; inconclusive = small, poorly fitted or top-dose-only effect; inactive = no such curve, though single readings can be large or run the other way.
Select the correct class. Options are yes (1) = active, no (0) = inactive and nothing else.

In this assay, the call recorded for CC(N[C@H]1C[C@H]1c1ccccc1)c1ccc2c(c1)OCCO2 (stereo partly drawn) was what?
no (0)

Then `CC(=O)Nc1ccc(OC[C@](C)(O)C(=O)Nc2ccc([N+](=O)[O-])c(C(F)(F)F)c2)cc1` ?
no (0)

Then `O=C(O)COc1nc(Cl)c(Cl)cc1Cl` ?
yes (1)

Then `CN[C@@H]1Cc2cccc3[nH]c(=O)n(c23)C1` ?
no (0)

Then `C[C@@H]1[C@H](O)[C@@H](C)C=CC=CCCC=CC=CC=CC=C[C@H](O[C@H]2O[C@@H](C)[C@H](O)[C@@H](N)[C@@H]2O)CC2O[C@](O)(C[C@@H](O)[C@H](O)CC[C@@H](O)C[C@@H](O)C[C@@H](O)CC(=O)O[C@H]1C)C[C@H](O)[C@H]2C(=O)O` ?
no (0)

Then `CC(=Cc1csc(C)n1)[C@@H]1C[C@H]2O[C@@H]2CCC[C@H](C)[C@@H](O)[C@@H](C)C(=O)C(C)(C)[C@@H](O)CC(=O)O1` ?
yes (1)

Then CC(C)NCC(O)c1ccc([N+](=O)[O-])cc1 (stereo not drawn) ?
no (0)

Then `Nc1ccc(Cl)cc1` ?
no (0)

Then `Cc1c(C(=O)Nc2cccc(C(F)(F)F)c2)cc(-c2ccccc2)n1CCCN1CCOCC1` ?
yes (1)

Then `CCc1c(C(=O)C(N)=O)c2c(OCC(=O)O)cccc2n1Cc1ccccc1` ?
no (0)

Then `Cc1nc(-c2ccc(-c3ccc(C(=O)N4CCc5cc6c(cc54)C4(CCN(C)CC4)CO6)cc3)c(C)c2)no1` ?
no (0)

Then `CC(=Cc1csc(C)n1)[C@@H]1C[C@H]2O[C@]2(C)CCC[C@H](C)[C@@H](O)[C@@H](C)C(=O)C(C)(C)[C@@H](O)CC(=O)O1` ?
yes (1)

Then `O=C(O)COc1ccccc1` ?
no (0)

Then `O=C(Nc1ccccc1-c1ccc(Cl)cc1)c1cccnc1Cl` ?
no (0)

Then CCC(=O)OC1CCC2C3CCC4=CC(=O)CC[C@@]4(C)C3CC[C@]12C (stereo partly drawn) ?
no (0)

Then `COC[C@H]1OC(=O)c2coc3c2[C@@]1(C)C1=C(C3=O)[C@@H]2CC[C@H](O)[C@@]2(C)C[C@@H]1OC(C)=O` ?
yes (1)

Then `O=C(O)CCCOc1ccc(Cl)cc1Cl` ?
no (0)

Then `O=C1C(I)=CC(=C(c2cc(I)c(O)c(I)c2)c2ccccc2C(=O)O)C=C1I` ?
no (0)

###

- test.name: qHTS profiling of the MIPE4 collection as inhibitors of Plasmodium falciparum (DD2) proliferation (AID 743345)
- study.conditions: P. falciparum Dd2 in erythrocytes, SYBR Green DNA, 72 h; at 28.5 µM (top of the series) unless noted
measured.metric: parasite growth remaining, % of DMSO control (lower = more inhibition) (%)
Could you give me the number in %? Just the number is fine.

// parasite growth remaining, % of DMSO control (lower = more inhibition) lookup, key: `C[C@]12CC[C@@H]3[C@@H](CCC4=CC(=O)CC[C@@H]43)[C@@H]1CC[C@@H]2OC(=O)CCc1ccccc1`
83

Then `C[C@@H]1CC[C@@]2(OC1)O[C@H]1C[C@H]3[C@@H]4CC=C5C[C@@H](O[C@@H]6O[C@H](CO)[C@@H](O[C@@H]7O[C@@H](C)[C@H](O)[C@@H](O)[C@@H]7O)[C@H](O)[C@@H]6O[C@@H]6O[C@@H](C)[C@H](O)[C@@H](O)[C@@H]6O)CC[C@]5(C)[C@@H]4CC[C@]3(C)[C@@H]1[C@H]2C` ?
52.8

Then `CC(C)N[C@@H]1CCn2c(=O)[nH]c3cccc(c32)[C@@H]1O` ?
104

Then `CCCCCC[C@H]1C(=O)O[C@H](C)[C@H](NC(=O)c2cccc(NC=O)c2O)C(=O)O[C@@H](C)[C@@H]1OC(=O)CC(C)C` ?
17.3

Then `C#C[C@]1(O)C=C[C@@H]2[C@@H]3CCC4=CC(=O)CC[C@@H]4[C@H]3CC[C@@]21CC` ?
59.4

Then N=c1c2c(-c3ccccc3)c(-c3ccccc3)n(Cc3ccccc3)c2ncn1C1CCC(O)CC1 (stereo not given) ?
9.02

Then `O=C(N[C@H]1CN2CCC1CC2)c1ccc(Cl)cc1` ?
82.1

Then `Cc1c(C(=O)Nc2cccc(C(F)(F)F)c2)cc(-c2ccccc2)n1CCCN1CCOCC1` ?
69.6

Then `COc1cc2cc(c1Cl)N(C)C(=O)C[C@H](OC(=O)C(C)C)[C@]1(C)O[C@H]1[C@H](C)[C@@H]1C[C@@](O)(NC(=O)O1)[C@H](OC)C=CC=C(C)C2` ?
16.8

Then `CCOC(=O)c1c(C(C#N)=CN)c2ccc(Cl)c(Cl)c2n1C` ?
97.1

Then `C[C@]12CC[C@H]3[C@@H](CCC4=CC(=O)CC[C@@]43C)[C@H]1CC[C@H]2O` ?
90.8

Then `CC(C)(O)C=CC(=O)[C@](C)(O)[C@H]1[C@H](O)C[C@]2(C)[C@@H]3CC=C4[C@@H](C=C(O)C(=O)C4(C)C)[C@]3(C)C(=O)C[C@@]12C` ?
7.06

Then `COc1ccc2c(c[n+](C)c3c4cc5c(cc4ccc23)OCO5)c1OC` ?
74.8

Then `CN1CCN(c2ccc([N+](=O)[O-])c3no[n+]([O-])c23)CC1` ?
95.3

Then `CC[C@H]1C=CC=CC[C@@H](C)[C@H](O)[C@@](C)(O)C(=O)[C@@H](C)[C@H](O)[C@@H](C)C(=O)[C@@H](C)[C@H](O)[C@@H](C)C=CC(=O)O[C@@H]2[C@@H](C)[C@H](CC1)O[C@]1(CC[C@H](C)[C@H](C[C@@H](C)O)O1)[C@H]2C` ?
6.38

Then `CC(=O)O[C@@]12CO[C@H]1C[C@H](O)[C@@]1(C)C(=O)[C@H](O)C3=C(C)[C@@H](O)C[C@@](O)([C@@H](OC(=O)c4ccccc4)[C@@H]21)C3(C)C` ?
94.5

Then `C[C@]12CCC(=O)C(O)=C1CC[C@@H]1[C@H]3CCC(=O)[C@@]3(C)CC[C@@H]12` ?
94.3

Then `CCN1C[C@]2(OC(=O)c3ccccc3NC(C)=O)CC[C@H](OC)[C@@]34[C@H]5CC6[C@@H](OC)C[C@](O)(C(C[C@@H]23)[C@@H]14)[C@@]5(O)[C@@H]6OC` ?
94

Then `C[C@H]([C@H](O)CCC(C)(C)O)[C@H]1CC[C@@]2(O)C3=CC(=O)[C@@H]4C[C@@H](O)[C@@H](O)C[C@]4(C)[C@@H]3CC[C@]12C` ?
99.4

Then C[C@H]1CCCC=CC2C[C@H](O)C[C@@H]2[C@H](O)C=CC(=O)O1 (stereo not given in full) ?
9.17
